test_name: self-splicing fitness, log relative to wild type (ln ratio); higher = more splicing; Tetrahymena group I intron in knt gene, E. coli kanamycin selection, DiMSum; sequences stand for … in CUCUCU…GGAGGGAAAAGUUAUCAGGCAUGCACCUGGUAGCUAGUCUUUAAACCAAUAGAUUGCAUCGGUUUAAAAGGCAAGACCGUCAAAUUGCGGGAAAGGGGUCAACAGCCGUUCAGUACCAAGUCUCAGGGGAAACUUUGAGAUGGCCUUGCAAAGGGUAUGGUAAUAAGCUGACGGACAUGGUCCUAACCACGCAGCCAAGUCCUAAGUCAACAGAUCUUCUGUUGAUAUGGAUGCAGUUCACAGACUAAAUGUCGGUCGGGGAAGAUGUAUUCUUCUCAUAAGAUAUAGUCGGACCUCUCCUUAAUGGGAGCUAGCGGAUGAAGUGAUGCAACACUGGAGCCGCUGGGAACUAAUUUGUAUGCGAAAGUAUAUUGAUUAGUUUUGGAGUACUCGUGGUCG;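 note: selection with 25 µg/mL kanamycin versus none on LB agar overnight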
details: 30 °C
Class definitions on self-splicing fitness (ln): low range: < -3; mid range: ≥ -3 and < -2; high range: ≥ -2

State the band of "ACAAAGCAAUAUUACGUCCU" high range

Record: "ACGAAGCAAUAUUACGCCUU" mid range

Record: "UCUUAGCAAUAUUACGGUGU" mid range

Record: "AAUGAGCAAUAUUACGCAAC" mid range

Record: "GGUGAGCAAUAUUACGAACA" high range

Record: "AUUAAGCAAUAUUACGGUCG" high range

Record: "GGCGAGCAAUAUUACGACCG" high range

Record: "UCGCAGCAAUAUUACGGACC" low range

Record: "UUCGAGCAAUAUUACGUCCA" mid range

Record: "GGGCAGCAAUAUUACGCGUC" mid range

Record: "GCGCAGCAAUAUUACGCAGA" low range

Record: "AGCGAGCAAUAUUACGUGCG" mid range

Record: "GCGCAGCAAUAUUACGUGUA" high range

Record: "UUUUAGCAAUAUUACGAAGA" high range

Record: "UUGAAGCAAUAUUACGCCAG" high range

Record: "CAUGAGCAAUAUUACGUGCG" high range

Record: "UUUAAGCAAUAUUACGAUGA" high range

Record: "UUGAAGCAAUAUUACGGUGU" low range

Record: "GGUAAGCAAUAUUACGCUCA" high range

Record: "CCUAAGCAAUAUUACGAGGC" low range

Record: "GUCCAGCAAUAUUACGUCCG" low range

Record: "UCCUAGCAAUAUUACGCGGC" low range

Record: "CUGUAGCAAUAUUACGGAUU" low range

Record: "ACUGAGCAAUAUUACGCACU" high range

Record: "GGACAGCAAUAUUACGGGGA" mid range

Record: "GGCGAGCAAUAUUACGCAAU" mid range

Record: "CACCAGCAAUAUUACGACCU" low range

Record: "CUUAAGCAAUAUUACGCUCG" mid range

Record: "UAAAAGCAAUAUUACGCAAA" low range

Record: "AUGCAGCAAUAUUACGAGUC" low range

* * *

test_name: self-splicing fitness, log relative to wild type (ln ratio); higher = more splicing; Tetrahymena group I intron in knt gene, E. coli kanamycin selection, DiMSum; sequences stand for … in CUCUCU…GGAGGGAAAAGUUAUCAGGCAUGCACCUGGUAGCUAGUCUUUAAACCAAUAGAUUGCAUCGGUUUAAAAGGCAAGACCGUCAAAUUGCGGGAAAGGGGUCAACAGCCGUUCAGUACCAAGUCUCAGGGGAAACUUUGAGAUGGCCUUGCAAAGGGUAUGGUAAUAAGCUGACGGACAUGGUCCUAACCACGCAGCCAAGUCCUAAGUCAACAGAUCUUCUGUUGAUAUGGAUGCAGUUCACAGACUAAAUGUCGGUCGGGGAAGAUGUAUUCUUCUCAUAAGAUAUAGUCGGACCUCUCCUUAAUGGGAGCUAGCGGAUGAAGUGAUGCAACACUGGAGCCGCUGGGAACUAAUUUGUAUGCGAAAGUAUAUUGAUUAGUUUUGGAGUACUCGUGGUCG
details: 30 °C
quantity_kind: self-splicing fitness (ln)
Lab note: record just the number, no unit beside it.

If you can, please state the reported self-splicing fitness (ln) value of "GAGGAGCAAUAUUACGACCU" . -2.45

Record: "AGCGAGCAAUAUUACGGGUG" -2.75

Record: "CCCAAGCAAUAUUACGAGCG" -2.62

Record: "AUCAAGCAAUAUUACGAACC" -1.05

Record: "UGUAAGCAAUAUUACGUGCU" -1.48

Record: "UUUAAGCAAUAUUACGUUAC" -3.76

Record: "UGAGAGCAAUAUUACGGCGA" -3.53

Record: "GAGUAGCAAUAUUACGCCGG" -1.99

Record: "UAACAGCAAUAUUACGUAGU" -3.35

Record: "CCCUAGCAAUAUUACGCGGG" -3.75

Record: "CGAAAGCAAUAUUACGCUGA" -3.09

Record: "AUCUAGCAAUAUUACGCAGG" -2.97

Record: "GACGAGCAAUAUUACGCUAU" -3.39

Record: "UAAAAGCAAUAUUACGGCGU" -1.12

Record: "AGAUAGCAAUAUUACGUCAU" -1.89

Record: "CGAUAGCAAUAUUACGACCU" -1.35

* * *

test_name: self-splicing fitness, log relative to wild type (ln ratio); higher = more splicing; Tetrahymena group I intron in knt gene, E. coli kanamycin selection, DiMSum; sequences stand for … in CUCUCU…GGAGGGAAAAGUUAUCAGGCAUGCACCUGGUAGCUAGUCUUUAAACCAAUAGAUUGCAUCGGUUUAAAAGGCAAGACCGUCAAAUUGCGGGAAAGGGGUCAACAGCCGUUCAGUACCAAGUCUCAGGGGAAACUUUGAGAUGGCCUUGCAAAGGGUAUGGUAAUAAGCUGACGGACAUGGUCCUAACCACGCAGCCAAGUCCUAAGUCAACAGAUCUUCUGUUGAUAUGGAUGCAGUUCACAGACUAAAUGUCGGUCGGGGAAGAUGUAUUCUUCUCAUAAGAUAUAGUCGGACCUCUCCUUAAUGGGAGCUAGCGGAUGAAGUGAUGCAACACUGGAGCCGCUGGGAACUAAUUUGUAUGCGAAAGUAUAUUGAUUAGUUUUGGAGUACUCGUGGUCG
details: 30 °C
Assignment: determine reported self-splicing fitness (ln) for the given sequences.
Lab note: record just the number, no unit beside it.

If you can, please state the reported self-splicing fitness (ln) value of "UUUUAGCAAUAUUACGAUGU" . -2.19

Record: "GCUAAGCAAUAUUACGUCGA" -1.21

Record: "UCCUAGCAAUAUUACGUACU" -3.41

Record: "AGUGAGCAAUAUUACGGCAA" -2.12

Record: "CGUUAGCAAUAUUACGCACC" -1.94

Record: "AGAUAGCAAUAUUACGCCAG" -3.6

Record: "GGCCAGCAAUAUUACGGGAC" -2.68

Record: "ACGAAGCAAUAUUACGCCAG" -2.08

Record: "CGGUAGCAAUAUUACGUUCA" -1.32

Record: "UUCUAGCAAUAUUACGAGUA" -0.88

Record: "GAAGAGCAAUAUUACGUUAG" -2.19

Record: "AUUAAGCAAUAUUACGAACG" -1.59

Record: "GUCGAGCAAUAUUACGAAAC" -2.72

Record: "GUGGAGCAAUAUUACGAAGG" -2.69

Record: "CCAUAGCAAUAUUACGUAAG" -0.421

Record: "UGUCAGCAAUAUUACGGGGA" -1.32

Record: "CUUAAGCAAUAUUACGUUGG" -2.67

Record: "CUUUAGCAAUAUUACGGAUA" -3.21

Record: "UGAUAGCAAUAUUACGAAGG" -2.96

Record: "AACAAGCAAUAUUACGAUCG" -1.4

Record: "GAUCAGCAAUAUUACGAGGU" -2.98

Record: "CUUGAGCAAUAUUACGCUCA" -1.12

Record: "AUGCAGCAAUAUUACGGCGC" -0.143

Record: "AUCAAGCAAUAUUACGCUGG" -2.36

Record: "CCCAAGCAAUAUUACGGUUC" -3.38

Record: "AUGAAGCAAUAUUACGUAGA" -2.86

Record: "AUUAAGCAAUAUUACGUCGG" -2.34

Record: "CCCGAGCAAUAUUACGCAGA" -3.96

Record: "CUAUAGCAAUAUUACGUCUU" -4.3

Record: "CACUAGCAAUAUUACGGCAG" -0.257

Record: "CGUCAGCAAUAUUACGAGCG" -3.52

Record: "CCUAAGCAAUAUUACGGCAA" -3.72

Record: "CCACAGCAAUAUUACGGGUG" -2.04

Record: "CGGAAGCAAUAUUACGCGGA" -2.73

Record: "GCUCAGCAAUAUUACGCCUU" 0.0207

Record: "CACUAGCAAUAUUACGGUUG" -1.98

Record: "CGGCAGCAAUAUUACGAGCU" -2.8

Record: "CAUCAGCAAUAUUACGUGCU" -3.71

Record: "CAUCAGCAAUAUUACGUUGU" -3.52

Record: "GGUAAGCAAUAUUACGCAUA" -1.19

Record: "AGAAAGCAAUAUUACGCGUG" -1.72

Record: "UUUCAGCAAUAUUACGCUCC" -1.69

Record: "CAGUAGCAAUAUUACGACCU" -0.458

Record: "AUGAAGCAAUAUUACGUCAA" -0.911

Record: "GACGAGCAAUAUUACGUGUA" -5.08

Record: "UAUCAGCAAUAUUACGUCCG" -0.361

Record: "AGUUAGCAAUAUUACGAUCA" -0.843

Record: "CCUCAGCAAUAUUACGGACG" -0.587

Record: "UGCCAGCAAUAUUACGCAAG" -3.07

Record: "UAAUAGCAAUAUUACGGAAC" -3.01

Record: "GUAGAGCAAUAUUACGGAUC" -0.404

Record: "AGCUAGCAAUAUUACGGACA" -1.06

Record: "CCCAAGCAAUAUUACGGAAA" -2.22

Record: "UCGUAGCAAUAUUACGAGUA" -2.71

Record: "AUAUAGCAAUAUUACGGCGG" -1.04

Record: "CGGCAGCAAUAUUACGGCCA" -0.0175

Record: "CAGAAGCAAUAUUACGUCCA" -1.68

Record: "CGCUAGCAAUAUUACGACUU" -2.41

Record: "GAUGAGCAAUAUUACGGAAU" -3.1

Record: "CCAGAGCAAUAUUACGGACU" -3.62

Record: "AAGAAGCAAUAUUACGCAUA" -1.29

Record: "ACUUAGCAAUAUUACGCCCC" -0.135

Record: "CUGAAGCAAUAUUACGCGCU" -3.35

Record: "UUAGAGCAAUAUUACGCGCU" -1.84

Record: "GUCCAGCAAUAUUACGUGGG" -3.68

Record: "CUGUAGCAAUAUUACGCCAU" -3.3

Record: "CCACAGCAAUAUUACGACAC" -3.68
